procedure summary: qHTS of pediatric cancer cell lines to identify multiple opportunities for drug repurposing: Primary screen for Rh30 cells (AID 1347107); note: nearly all actives have a fitted effect of over 75% in size
conditions used: Rh30 rhabdomyosarcoma viability, CellTiter-Glo luminescence, 48 h; series mostly up to 46 µM
Results filed as inconclusive are left out. Activity calls are given as the source filed them. Calls come from the whole dose curve; as a rule, active = well fitted cell-killing curve with a large enough effect; inconclusive = small, poorly fitted or top-dose-only effect; inactive = no such curve, though single readings can be large or run the other way.
Your answer must be one of the following: YES = active, NO = inactive

Solved cases below.
[
  {
    "compound": "C[C@@H]1[C@H](C)CC[C@]2(C(=O)O)CC[C@]3(C)C(=CC[C@@H]4[C@@]5(C)C[C@@H](O)[C@H](O)[C@@](C)(CO)[C@H]5CC[C@]43C)[C@@H]12",
    "category label": "NO"
  },
  {
    "compound": "O=C(C=CC#Cc1cccc(NS(=O)(=O)c2ccccc2)c1)NO",
    "category label": "YES"
  },
  {
    "compound": "CON=C(C(=O)N[C@@H]1C(=O)N2C(C(=O)O)=C(Cn3ccc(=N)n3CCO)CS[C@H]12)c1csc(N)n1",
    "category label": "NO"
  }
]

### Prompt Tell me the recorded outcome of this test for CC(N[C@H]1CCCC[C@H]1NC(=O)c1ccc(Cl)cc1)c1cccc2ccccc12 (stereo partly specified) .
### Response NO

### Prompt Outcome logged for "c1coc(CNc2ncnc3nc[nH]c23)c1" in this assay:
### Response NO

### Prompt # fetch the recorded call for "CC(C)n1cnc2c(NCCc3ccc(O)cc3)nc(-c3csc4ccccc34)nc21" here
### Response YES

### Prompt Recorded test outcome, item "C[C@@H](NCc1cc2ccccc2[nH]1)c1cccc2ccccc12"
### Response NO

### Prompt For this compound, state the assay outcome: "O=C1NC(=O)[C@@H](c2cn3c4c(cccc24)CCC3)[C@H]1c1c[nH]c2ccccc12"
### Response NO

### Prompt Entry "CC[C@]12C=CCN3CC[C@@]4(c5cc([C@@]6(C(=O)OC)C[C@H]7C[C@@H](C(C)(F)F)CN(Cc8c6[nH]c6ccccc86)C7)c(OC)cc5N(C)[C@H]4[C@@](O)(C(=O)OC)[C@H]1OC(C)=O)[C@@H]32" : call = ?
### Response NO

====

procedure summary: P-glycoprotein substrates identified in KB-8-5-11 adenocarcinoma cell line, qHTS therapeutic library screen (AID 1346987); note: nearly all actives have a fitted effect of over 65% in size; note: potency is the fitted concentration of half-maximal effect
conditions used: KB-8-5-11 (P-gp overexpressing) viability, CellTiter-Glo, 72 h; series mostly up to 44.5 µM
Results filed as inconclusive are left out. Calls of active or inactive are those of the source. Calls come from the whole dose curve; as a rule, active = well fitted inhibition curve with a large enough effect; inconclusive = small, poorly fitted or top-dose-only effect; inactive = flat fitted curve, though single readings scatter.
parameter: Potency

The cases that follow already have their Potency on record.
[
  {
    "compound": "N[C@H]1CN(c2c(F)cc3c(=O)c(C(=O)O)cn(C4C[C@@H]4F)c3c2Cl)CC12CC2 (stereo partly specified)",
    "Potency": "inactive"
  },
  {
    "compound": "O=C1c2c(O)cccc2[C@@H]([C@@H]2O[C@H](CO)[C@@H](O)[C@H](O)[C@H]2O)c2cc(CO)cc(O)c21",
    "Potency": "inactive"
  },
  {
    "compound": "CC1(C)[C@H](O[C@H]2O[C@H](C(=O)O)[C@@H](O)[C@H](O)[C@H]2O[C@@H]2O[C@H](C(=O)O)[C@@H](O)[C@H](O)[C@H]2O)CC[C@@]2(C)[C@H]1CC[C@]1(C)[C@H]2C(=O)C=C2[C@H]3C[C@@](C)(C(=O)O)CC[C@]3(C)CC[C@]21C",
    "Potency": "inactive"
  },
  {
    "compound": "CC(=O)O[C@@]12CO[C@H]1C[C@H](O)[C@@]1(C)C(=O)[C@H](O)C3=C(C)[C@@H](OC(=O)C(O)[C@@H](NC(=O)OC(C)(C)C)c4ccccc4)C[C@@](O)([C@@H](OC(=O)c4ccccc4)[C@@H]21)C3(C)C (stereo partly specified)",
    "Potency": "16.6 nM (active)"
  },
  {
    "compound": "C[N+]1(C)[C@@H]2C[C@@H](OC(=O)C(O)(c3cccs3)c3cccs3)C[C@H]1[C@@H]1O[C@@H]12",
    "Potency": "inactive"
  }
]

### Prompt // Input: "COC(=O)[C@H](CCCN=C(N)N)NS(=O)(=O)c1ccc(C)cc1" . Output its Potency only.
### Response inactive
